Assignment: determine reported pIC50 for the given compounds.
- System: MDA-MB-231
- experiment-summary: Cytotoxicity against human MDA-MB-231 cells assessed as reduction in cell viability incubated for 72 hrs by SRB assay
- Assay type: functional, cell-based
- condition-info: MDA-MB-231, 72 h
Here pIC50 is given on a logarithmic scale as minus log10 of the concentration in mol/L.

Query :: Hello, please tell me recorded pIC50 for this one: COc1cc([C@@H]2c3cc4c(cc3[C@@H](O[C@@H]3O[C@@H]5CO[C@@H](C)O[C@H]5[C@H](O)[C@H]3O)[C@H]3COC(=O)[C@H]23)OCO4)cc(OC)c1O [ETOPOSIDE]
Result :: 6.40

Query :: Tell me its pIC50 given CC[C@H](C)[C@@H]1NC(=O)[C@H](Cc2c[nH]c3ccccc23)N(C)C(=O)[C@@H]2CCCNN2C(=O)[C@H](CO)N(C)C(=O)[C@H](CC(C)C)NC(=O)[C@H](Cc2ccccc2)N(C)C(=O)[C@@H](C)NC(=O)[C@H](C(C)C)N(C)C(=O)CCNC(=O)[C@H](C)N(C)C1=O as the entry.
Result :: 6.70

====

- Tested on: SK-HEP1
- experiment-summary: Cytotoxicity against human SK-HEP1 cells assessed as reduction in cell viability incubated for 72 hrs by SRB assay
- Type: functional, cell-based
- condition-info: SK-HEP1, 72 h
quantity-name: IC50
Express your answer as a number followed by its unit.

Query :: // fetch IC50 given entry CC[C@H](C)[C@@H]1NC(=O)[C@H](Cc2c[nH]c3ccccc23)N(C)C(=O)[C@@H]2CCCNN2C(=O)[C@H](CO)N(C)C(=O)[C@H](CC(C)C)NC(=O)[C@H](Cc2ccccc2)N(C)C(=O)[C@@H](C)NC(=O)[C@H](C(C)C)N(C)C(=O)CCNC(=O)[C@H](C)N(C)C1=O
Result :: 200 nM

Query :: Give the measured IC50 for COc1cc([C@@H]2c3cc4c(cc3[C@@H](O[C@@H]3O[C@@H]5CO[C@@H](C)O[C@H]5[C@H](O)[C@H]3O)[C@H]3COC(=O)[C@H]23)OCO4)cc(OC)c1O [ETOPOSIDE]
Result :: 400 nM
